Catalogue of IC50 readings, one per entry.
Target: Human immunodeficiency virus type 1 integrase (Human immunodeficiency virus 1)
Sequence (Q7ZJM1 whole entry): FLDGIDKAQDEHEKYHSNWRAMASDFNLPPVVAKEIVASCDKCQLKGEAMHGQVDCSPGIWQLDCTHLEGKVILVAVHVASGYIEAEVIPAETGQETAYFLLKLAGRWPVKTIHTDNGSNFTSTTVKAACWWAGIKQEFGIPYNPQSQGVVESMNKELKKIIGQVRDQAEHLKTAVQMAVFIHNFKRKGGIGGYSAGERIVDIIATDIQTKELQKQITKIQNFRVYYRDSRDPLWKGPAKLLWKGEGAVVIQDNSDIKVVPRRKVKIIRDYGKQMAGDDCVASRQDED
READOUT_TYPE: IC50 (µM)

SMILES_CODE	ASSAY_SYSTEM	READOUT_TYPE	UNIT_LABEL	REPORTED
COc1ccc2c(C(=O)/C=C(\O)C(=O)O)cn(Cc3ccc(F)cc3)c2c1OC	Human immunodeficiency virus type 1 integrase (Human immunodeficiency virus 1)	IC50	µM	3.55
CCOC(=O)/C(O)=C/C(=O)c1cn(Cc2ccc(F)cc2)c2cc(OC)c(OC)cc12	Human immunodeficiency virus type 1 integrase (Human immunodeficiency virus 1)	IC50	µM	4.4
CCOC(=O)/C(O)=C/C(=O)c1cn(Cc2ccc(F)cc2)c2cc(OC)cc(OC)c12	Human immunodeficiency virus type 1 integrase (Human immunodeficiency virus 1)	IC50	µM	2.79
COc1cc2c(C(=O)/C=C(\O)C(=O)O)cn(Cc3ccc(F)cc3)c2cc1OC	Human immunodeficiency virus type 1 integrase (Human immunodeficiency virus 1)	IC50	µM	0.547
CCOC(=O)/C(O)=C/C(=O)c1cn(Cc2ccc(F)cc2)c2c(OC)cc(OC)cc12	Human immunodeficiency virus type 1 integrase (Human immunodeficiency virus 1)	IC50	µM	18.1
COc1cc(OC)c2c(c1)c(C(=O)/C=C(\O)C(=O)O)cn2Cc1ccc(F)cc1	Human immunodeficiency virus type 1 integrase (Human immunodeficiency virus 1)	IC50	µM	0.251
COc1ccc2c(c(C(=O)/C=C(\O)C(=O)O)cn2Cc2ccc(F)cc2)c1OC	Human immunodeficiency virus type 1 integrase (Human immunodeficiency virus 1)	IC50	µM	1.45
CCOC(=O)/C(O)=C/C(=O)c1cn(Cc2ccc(F)cc2)c2ccc(OC)c(OC)c12	Human immunodeficiency virus type 1 integrase (Human immunodeficiency virus 1)	IC50	µM	0.9
COc1cc(OC)c2c(C(=O)/C=C(\O)C(=O)O)cn(Cc3ccc(F)cc3)c2c1	Human immunodeficiency virus type 1 integrase (Human immunodeficiency virus 1)	IC50	µM	0.47
CCOC(=O)/C(O)=C/C(=O)c1cn(Cc2ccc(F)cc2)c2c(OC)c(OC)ccc12	Human immunodeficiency virus type 1 integrase (Human immunodeficiency virus 1)	IC50	µM	7.41

* * *

CC50 values by entry
Experiment: Cytotoxicity against human MT4 cells by MTT assay
Type: cell-based

SMILES_CODE	COMPARISON_SIGN	CC50 [µM]
COc1cc(OC)c2c(c1)c(C(=O)/C=C(\O)C(=O)O)cn2Cc1ccc(F)cc1	=	58.5
CCOC(=O)/C(O)=C/C(=O)c1cn(Cc2ccc(F)cc2)c2ccc(OC)c(OC)c12	=	111
Cc1nnc(C(=O)NC(C)(C)c2nc(C(=O)NCc3ccc(F)cc3)c(O)c(=O)n2C)o1	>	18
CCOC(=O)/C(O)=C/C(=O)c1cn(Cc2ccc(F)cc2)c2c(OC)cc(OC)cc12	=	62.1
COc1ccc2c(c(C(=O)/C=C(\O)C(=O)O)cn2Cc2ccc(F)cc2)c1OC	=	126
CCOC(=O)/C(O)=C/C(=O)c1cn(Cc2ccc(F)cc2)c2cc(OC)cc(OC)c12	=	55.4
COc1cc2c(C(=O)/C=C(\O)C(=O)O)cn(Cc3ccc(F)cc3)c2cc1OC	=	65.5
COc1cc(OC)c2c(C(=O)/C=C(\O)C(=O)O)cn(Cc3ccc(F)cc3)c2c1	=	20.7
CCOC(=O)/C(O)=C/C(=O)c1cn(Cc2ccc(F)cc2)c2c(OC)c(OC)ccc12	=	119
COc1ccc2c(C(=O)/C=C(\O)C(=O)O)cn(Cc3ccc(F)cc3)c2c1OC	=	130
CCOC(=O)/C(O)=C/C(=O)c1cn(Cc2ccc(F)cc2)c2cc(OC)c(OC)cc12	=	21.8
